biological target: GST-Bcl-2 (Homo sapiens); assay: TR-FRET binding assay, GST-Bcl-2 with F-Bak peptide probe; conditions: TR-FRET Binding Affinity, GST-Bcl-2, F-Bak peptide probe
Sequence (P10415 whole entry): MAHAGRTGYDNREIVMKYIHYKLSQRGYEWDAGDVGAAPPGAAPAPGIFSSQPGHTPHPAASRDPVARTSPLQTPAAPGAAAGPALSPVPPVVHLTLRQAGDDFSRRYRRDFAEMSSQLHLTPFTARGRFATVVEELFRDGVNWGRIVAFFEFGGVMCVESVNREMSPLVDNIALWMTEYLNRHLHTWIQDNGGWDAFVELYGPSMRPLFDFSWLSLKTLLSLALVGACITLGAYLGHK
assay-readout: Ki (nM)
Report the figure in nM without appending any unit label.

- molecule: "CC(C)[C@H](CO)Nc1ccc(S(=O)(=O)NC(=O)c2ccc(N3CCN(CC4=C(c5ccc(Cl)cc5)CC(C)(C)CC4)CC3)cc2Oc2ccc3[nH]ccc3c2)cc1[N+](=O)[O-]"
  observed-result: 8.38

Now, please, on to the next molecule.
Form field: reported Ki of `CN1CCC(CNc2ccc(S(=O)(=O)NC(=O)c3ccc(N4CCN(CC5=C(c6ccc(Cl)cc6)CC(C)(C)CC5)CC4)cc3Oc3cccc4[nH]ccc34)cc2[N+](=O)[O-])CC1` 0.08
